# Experiment Description: Pharmacokinetic determination in rats (IV and PO)
# Type: in vivo, Sprague Dawley rats
# Particulars: Sprague Dawley; rat, IV, single administration, plasma
Attribute Measured: half-life (h)
Numeric answer only, unit h assumed.

Need half-life of O=C1COC(c2cn(-c3ccc(Br)cc3)nc2-c2ccc(F)cc2)N1CCc1ccc2[nH]c(=O)[nH]c2c1 (racemic) [example 3 racemate] , thanks. 3.52

---

# Experiment Description: Pharmacokinetic determination in mice (subcutaneous)
# Type: in vivo
# Particulars: sc, female BALB/c mouse, single administration, plasma
Attribute Measured: Tmax (h)
Respond with the bare value in h.

Tmax for O=C1CO[C@H](c2cn(-c3ccc(Br)cc3)nc2-c2ccc(F)cc2)N1CCc1ccc2[nH]c(=O)[nH]c2c1 [example 3 R isomer] ? 1.33

---

# Experiment Description: Pharmacokinetic determination in rats (IV and PO)
# Format: in vivo, Sprague Dawley rats
# Particulars: Sprague Dawley; rat, PO, single administration, plasma
Attribute Measured: Cmax (ng/mL)
Answer format: numeric, ng/mL implied, no suffix.

I would be grateful if you could share the reported Cmax for O=C1COC(c2cn(-c3ccc(Br)cc3)nc2-c2ccc(F)cc2)N1CCc1ccc2[nH]c(=O)[nH]c2c1 (racemic) [example 3 racemate] . 201

---

# Experiment Description: Pharmacokinetic determination in rats (IV and PO)
# Type: in vivo, Sprague Dawley rats
# Particulars: Sprague Dawley, plasma; rat, IV, single administration; read-out: Vz
Attribute Measured: Vd (L/kg)
Numbers only here, please. The scale is L/kg.

Item under review: O=C1COC(c2cn(-c3ccc(Br)cc3)nc2-c2ccc(F)cc2)N1CCc1ccc2[nH]c(=O)[nH]c2c1 (racemic) [example 3 racemate] . Reported Vd? 6.22

---

# Experiment Description: Pharmacokinetic determination in mice (subcutaneous)
# Assay type: in vivo
# Particulars: sc, female BALB/c mouse, single administration, plasma
Attribute Measured: half-life (h)
The response must be a number in h with no trailing unit.

What does the record list as half-life for O=C1CO[C@H](c2cn(-c3ccc(Br)cc3)nc2-c2ccc(F)cc2)N1CCc1ccc2[nH]c(=O)[nH]c2c1 [example 3 R isomer] ? 1.19

---

# Experiment Description: Pharmacokinetic determination in rats (IV and PO)
# Format: in vivo, Sprague Dawley rats
# Particulars: Sprague Dawley; rat, IV, single administration, plasma
# Method: The pharmacokinetics of the compound of Example 3 (racemate) in the present application was determined in rats. Test compounds were intravenously (IV) and orally (P0) administered to Sprague Dawley rats once. Blood samples were collected at different time points. […] According to the drug blood concentration data, the pharmacokinetic parameters of the test compound were calculated using the pharmacokinetic calculation software WinNonlin 5.2 non-compartmental model.
Attribute Measured: Cmax (ng/mL)
Please state the figure in ng/mL; there is no need to write the unit.

If you can, please state the reported Cmax value of O=C1COC(c2cn(-c3ccc(Br)cc3)nc2-c2ccc(F)cc2)N1CCc1ccc2[nH]c(=O)[nH]c2c1 (racemic) [example 3 racemate] . 5460

---

# Experiment Description: Pharmacokinetic determination in rats (IV and PO)
# Format: in vivo, Sprague Dawley rats
# Particulars: Sprague Dawley; rat, PO, single administration, plasma
Attribute Measured: Tmax (min)
Express the result in min but write the number alone.

Item O=C1COC(c2cn(-c3ccc(Br)cc3)nc2-c2ccc(F)cc2)N1CCc1ccc2[nH]c(=O)[nH]c2c1 (racemic) [example 3 racemate] has what recorded Tmax? 49.8
